testProtocol: folding enthalpy; higher = less favourable; fluorescence melt of hairpins on a sequencing array, two-state fit
setupConditions: sodium 0.088 M
endpoint: folding enthalpy (kcal/mol)
// units = kcal/mol; emit number, no label

Sample records with folding enthalpy:
GGACGTCGAAAGACCTCC (((.(((....))).))) ... -22.3
GATCGCAAGAGCGATC ((((((....)))))) ... -34
GTTCTGGAAACAGAAC ((((((....)))))) ... -37.2

Qu. Give a short answer stating reported folding enthalpy for GCCCCGCGAAAGCCGAGC ((.(.((....)).).)) .
Ans. -11.3

Qu. Give a short answer stating reported folding enthalpy for GATCCTATGCAGGATC ((((((....)))))) .
Ans. -35.2

Qu. Give a short answer stating reported folding enthalpy for GGAAGAGCGAAAGCTTCC (((..(((....)))))) .
Ans. -16.1

Qu. Give a short answer stating reported folding enthalpy for GGAGTGGGAAACCACCCC ((.((((....)))).)) .
Ans. -21.5

---

testProtocol: melting temperature; fluorescence melt of hairpins on a sequencing array, two-state fit, raised by 9.35 °C to match UV melts
setupConditions: sodium 0.088 M
Decide by Tm: equal to or exceeding 50 °C means criterion met, less means criterion not met.

Qu. Threshold query (Tm >= 50 °C) on GTTGCCCGAAAGGGTAAC (((.(((....))).)))
Ans. criterion met

Qu. Threshold query (Tm >= 50 °C) on GATCCTAGGCAGGATC ((((((....))))))
Ans. criterion met

Qu. Threshold query (Tm >= 50 °C) on GCTAAGCGAAAGCAAAGC (((..((....))..)))
Ans. criterion not met

Qu. Threshold query (Tm >= 50 °C) on GGCAGGCGAAAGCCCGCC (((.(((....))).)))
Ans. criterion met

Qu. Threshold query (Tm >= 50 °C) on GTACTCCGAAAGGATAC (((.(((....))))))
Ans. criterion not met

Qu. Threshold query (Tm >= 50 °C) on CGCCTACGGAAACGTGCG (((..(((....))))))
Ans. criterion not met

Qu. Threshold query (Tm >= 50 °C) on GGGCCATCGAAAGATCCC (((..(((....))))))
Ans. criterion not met

Qu. Threshold query (Tm >= 50 °C) on GCACTGAAAAGTGC (((((....)))))
Ans. criterion met

Qu. Threshold query (Tm >= 50 °C) on GCGTCAGGAAACCGACGC (((((.(....).)))))
Ans. criterion met

Qu. Threshold query (Tm >= 50 °C) on GGGTTCGGAAACGAACTC (.(((((....))))).)
Ans. criterion met

---

testProtocol: melting temperature; fluorescence melt of hairpins on a sequencing array, two-state fit, raised by 9.35 °C to match UV melts
setupConditions: sodium 0.088 M
endpoint: Tm (°C)
// units = °C; emit number, no label

Sample records with Tm:
GCCCAGCGAAAGCCGCGC ((.(.((....)).).)) ... 45.7
GATCATTGAATGATC ((((((...)))))) ... 44.4
GATCGGTTTCCGATC ((((((...)))))) ... 59
GATCCCGTCGGGATC ((((((...)))))) ... 67.2
GACAGTGCGAAAGCAGTC (((..(((....)))))) ... 40.5

Qu. Give a short answer stating reported Tm for GATTCGCGAAAGCGGATC (((.(((....))).))) .
Ans. 60.5

Qu. Give a short answer stating reported Tm for GATCACTAACGTGATC ((((((....)))))) .
Ans. 54.9

Qu. Give a short answer stating reported Tm for GCTGGGGGAAACTCCGGC ((.((.(....).)).)) .
Ans. 47.1

Qu. Give a short answer stating reported Tm for GTTCCCCGAAAGGGCAAC (((.(((....))).))) .
Ans. 35.2

Qu. Give a short answer stating reported Tm for GCCTCGCGAAAGCCACGC ((.(.((....)).).)) .
Ans. 20.5

Qu. Give a short answer stating reported Tm for GCATACGAAAGTAGTTGC ((((((....)))..))) .
Ans. 33.1

Qu. Give a short answer stating reported Tm for CGCGGAAGTATCCGCG ((((((....)))))) .
Ans. 69
